Experiment: Test 2: Pharmacokinetic test in dogs
Format: in vivo, dog
Conditions: dog, blood, iv, 10 mg/kg, dogs, i.v. 10 mg/kg, 30 min; read-out: Blood concentration, Average(+error)
resultType: concentration at 0.5 h
Don't forget the unit after the number, please.

Which concentration at 0.5 h value is on record for `CN(C(=O)[C@H](Cc1ccc(C(=N)NN)cc1)NS(=O)(=O)c1ccc2ccccc2c1)C1CCCC1` ?
1880 ng/mL

---

Experiment: Test 2: Pharmacokinetic test in dogs
Format: in vivo, dog
Settings: dog, blood, iv, 10 mg/kg, Dog-1, i.v. 10 mg/kg, 360 min; read-out: Blood concentration
Description: Male rats and dogs were fasted for 24 hours and used as the experimental animals. […] Bloods were collected from the animals at given time intervals and then immediately mixed with methanol and zinc sulfate. Finally, the upper layer of the mixture was quantitatively analyzed at ultraviolet wavelength of 231 nm to measure the drug concentration in blood by HPLC.
resultType: concentration at 6 h
Number first, unit second.

For `CN(C(=O)[C@H](Cc1ccc(C(=N)NN)cc1)NS(=O)(=O)c1ccc2ccccc2c1)C1CCCC1` , what is its reported concentration at 6 h?
317 ng/mL
